Please respond with reported sensor-assay potency score (higher = more potent) for every item in the list.
# measuredTarget: POP5; note: reference of the scale not given here
# assayProcedure: pooled miR-30 sensor sort-seq; sequence = guide strand
# experimentalParameters: shRNA

Data request: Entry TTCTGCATCGAAGTAGCACTAT , system POP5: what sensor-assay potency score (higher = more potent) was measured?; note: reference of the scale not given here
Data returned: -0.187

Data request: API: value(readout=sensor-assay potency score (higher = more potent), system=POP5) for record ATTAAATCTACTCTTAGCCAAG; note: reference of the scale not given here
Data returned: -1.64

Data request: Hello, I am looking for reported sensor-assay potency score (higher = more potent) with POP5 for TAACTGAGTACTCCATTTCAAG . Could you help?
Data returned: -1.58

Data request: Lab note: need sensor-assay potency score (higher = more potent) for AAGATCAACAGCTGTCTCCTGT on POP5, anyone have it?
Data returned: 0.552

Data request: Give recorded sensor-assay potency score (higher = more potent) with POP5 for the following sequence: TACTGAATTAGGAACTTCTGAC
Data returned: -0.267

Data request: So what sensor-assay potency score (higher = more potent) did TACAGAGTTCACAACCTGCAAC get with POP5?
Data returned: -0.95

Data request: So what sensor-assay potency score (higher = more potent) did TATTAAATCTACTCTTAGCCAA get with POP5?
Data returned: -0.331

Data request: Test system POP5; read-out sensor-assay potency score (higher = more potent); what value for TTGTTCTGTTCAACAAGTGGGC ?; note: reference of the scale not given here
Data returned: -0.188
